target: Histone-lysine N-methyltransferase EHMT2 (Homo sapiens) (UniProt Q96KQ7); assay: qHTS Assay for Inhibitors of Histone Lysine Methyltransferase G9a; details: G9a H3K9 monomethylation, AlphaScreen, 2 h; series mostly up to 102 µM; note: % is set by controls: 0 for no effect and ±100 for the full control effect; nearly all actives have a fitted effect of over 75% in size
Sequence (Q96KQ7 913-1193 limits assumed): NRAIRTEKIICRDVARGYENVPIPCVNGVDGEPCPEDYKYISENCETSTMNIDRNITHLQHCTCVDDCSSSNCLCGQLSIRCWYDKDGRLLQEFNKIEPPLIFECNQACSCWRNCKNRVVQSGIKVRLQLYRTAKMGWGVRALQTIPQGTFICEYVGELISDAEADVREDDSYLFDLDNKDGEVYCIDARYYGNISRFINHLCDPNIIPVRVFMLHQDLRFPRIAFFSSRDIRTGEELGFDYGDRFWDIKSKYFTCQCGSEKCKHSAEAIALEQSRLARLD
Among all 350,000 compounds or so, about 31,000 (8.9%) were called active. Not shown: some 15% with an inconclusive outcome. Only a selection was taken, and actives are over-represented in it overall.

# Molecule, activity, negative = inhibition
records = [
    ("CNC(=O)Nc1ccc(C(O)(C(=O)OC)C(F)(F)F)cc1 (stereo not given)", "inactive"),
    ("Cc1ccc(N2C(=O)NC(=O)C(CCc3ccncc3)(Cc3cccc(Cl)c3Cl)C2=O)cc1 (stereo not given)", "inactive"),
    ("CN(C)CC1CCCCC1=O (stereo not given)", "inactive"),
    ("Cc1cc(C(=O)OCC(=O)Nc2c(F)cccc2F)c(C)n1C1CC1", "inactive"),
    ("CC(c1ccccc1)(c1ccccc1)c1ccncc1", "inactive"),
    ("Nc1ccc([N+](=O)[O-])cc1", "6.3% [at 0.501 µM] (inactive)"),
    ("OC(CNC1CCCCC1)c1ccccc1 (stereo not given)", "2.5% [at 12.7 µM] (inactive)"),
    ("O=c1[nH]c(=O)n(-c2ccccc2)c(O)c1C=NC12CN3CN(CN(C3)C1)C2", "inactive"),
    ("Clc1ccc2nc3c(c(-c4ccccc4)c2c1)CNCC3", "inactive"),
    ("CCOP(=S)(OCC)SCOC(=O)NCC(=O)OC", "inactive"),
    ("COc1cc(-n2c(=S)[nH]c3ccc(C)cc3c2=O)c(Cl)cc1Cl", "20.4% [at 12.7 µM] (inactive)"),
    ("CCOc1cccc(=NC2CCCCC2)c2c(C)[nH]c(C)c12", "40.3% [at 12.7 µM] (inactive)"),
    ("CCCCC/C=C\\C/C=C\\C/C=C\\CCCCCCC(=O)NCCO", "inactive"),
    ("COc1ccc(C(=O)C2CCCN(Cc3ccc(C)s3)C2)cc1OC (stereo not given)", "inactive"),
    ("CN[C@@H]1C[C@H]2O[C@@](C)([C@@H]1OC)n1c3ccccc3c3c4c(c5c6ccccc6n2c5c31)C(=O)NC4", "inactive"),
    ("O=C(Nc1cccc(OC(=O)N2CCCCC2)c1)N1CCOCC1", "inactive"),
    ("COc1cccc(N2C(=O)NC(=O)/C(=C\\c3cn(C)c4ccccc34)C2=O)c1", "inactive"),
    ("CC(C)Nc1nc(Cl)nc(NC(C)C)n1", "inactive"),
    ("Cc1ccc(P(=S)(c2ccc(C)o2)N2CCOCC2)o1", "-35.9% [at 12.7 µM] (inactive)"),
    ("O=C(N/N=C/c1c(O)n(C2CC2)c(=S)[nH]c1=O)c1ccccc1", "inactive"),
    ("Cc1ccc(C2CN(C)CC2C(=O)c2ccc(F)cc2)cc1 (stereo not given)", "inactive"),
    ("CCCCC/C=C\\C/C=C\\C/C=C\\C=C\\[C@H](CCCC(=O)O)OO", "inactive"),
    ("Fc1cccc(F)c1CN1CCN(Cc2c(F)cccc2F)CC1", "inactive"),
    ("CCCn1c(C(=O)c2ccccc2OC)nc2ccccc21", "inactive"),
    ("COC(=O)C1=C(c2ccc(F)cc2OCc2ccccc2)C[C@@H]2CC[C@H]1N2C(=O)NCc1ccc(C(C)(C)C)cc1", "21.1% [at 2.33 µM] (inactive)"),
    ("O=c1c2ccccc2nc(-c2ccccc2)n1-c1ccccn1", "0.769% [at 0.501 µM] (inactive)"),
    ("Cc1ccc(-n2c(O)c(C=NCC3CCCO3)c(=O)[nH]c2=O)c(C)c1 (stereo not given)", "48.7% [at 12.7 µM] (inactive)"),
    ("CSC1=NP(=S)(SC)N(C)c2nc3n(c21)CCC3 (stereo not given)", "inactive"),
    ("c1cc2c(cc1[C@H]1OC[C@H]3[C@@H]1CO[C@@H]3c1ccc3c(c1)OCO3)OCO2", "inactive"),
    ("CN(C)c1ccc(/C=C2\\CC3C4CC=C5CC(O)CCC5(C)C4CCC3(C)C2=O)cc1 (stereo not given)", "inactive"),
    ("COc1ccc(NC(=O)N2CCC3(CC2)OCCO3)c(OC)c1", "inactive"),
    ("COC(=O)N1C(c2ccccc2)C1c1ccccc1 (stereo not given)", "inactive"),
    ("CSc1nc2ccc(C)cc2c(=O)n1-c1cccnc1", "inactive"),
    ("COC(=O)C1=C(c2ccc(Cl)c(C(F)(F)F)c2)C[C@@H]2CC[C@H]1N2C(=O)NC1CC1", "7.94% [at 0.501 µM] (inactive)"),
    ("Cc1cccc(-n2c(C)nc3cc(C(=O)N4CCC5(CC4)OCCO5)ccc32)c1", "inactive"),
    ("Cn1cc(C(=O)OCC(=O)N2CCCC2)c2ccccc21", "17.1% [at 12.7 µM] (inactive)"),
    ("CCc1nnc(NS(=O)(=O)c2ccc(N=Cc3c(O)n(-c4ccccc4)c(=O)[nH]c3=O)cc2)s1", "inactive"),
    ("COC(=O)C1=C(c2ccc(F)cc2OCc2ccccc2)C[C@@H]2CC[C@H]1N2C(=O)NCc1ccc2[nH]ccc2c1", "4.96% [at 0.501 µM] (inactive)"),
    ("NC(=O)Nc1cccc(C(F)(F)F)c1", "inactive"),
    ("Cn1c(O)c(C=NCCN2CCNCC2)c(=O)n(C)c1=O", "inactive"),
    ("O=c1[nH]c(=O)n(CCc2ccccc2)c(O)c1/C=N/N1CCOCC1", "inactive"),
    ("O=c1c2ccccc2nc(-c2ccco2)n1-c1ccc(Br)cn1", "inactive"),
    ("Cc1nnc(NC(=O)c2cccn(Cc3cccc(F)c3)c2=O)s1", "inactive"),
    ("N#Cc1ccc(Cn2cc(C(=O)c3ccco3)c3ccccc32)cc1", "inactive"),
    ("CCC(=NCCCO)c1c(O)n(-c2ccc(OC)cc2)c(=O)[nH]c1=O", "inactive"),
]
